system: Human immunodeficiency virus 1; assay: Antiviral activity against NRTI-resistant Human immunodeficiency virus 1 29129-2 harboring reverse transcriptase M41L, D67N, L210W, T215Y and M184V mutant infected in human TZM-bl cells assessed as reduction in relative luminescence units after 48 hrs by luciferase reporter gene assay; type: functional, organism-based; details: Human immunodeficiency virus 1, 29129-2, TZM-bl

Structure String	EC50
[N-]=[N+]=N[C@]1(CO)O[C@@H](n2ccc(N)nc2=O)[C@@H](F)[C@@H]1O	> 40 µM

###

assay: Cytotoxicity activity against human ACH2 by CellTiter-Glo luminescent cell viability assay; conditions: ACH-2

Structure String	IC50 (nM)
[N-]=[N+]=N[C@]1(CO)O[C@@H](n2ccc(N)nc2=O)[C@@H](F)[C@@H]1O	110

###

tested on: Human immunodeficiency virus 1; test: Antiviral activity against Human immunodeficiency virus 1 NL4-3 infected in human TZM-bl cells assessed as reduction in relative luminescence units after 48 hrs by luciferase reporter gene assay; format: functional, organism-based; settings: Human immunodeficiency virus 1, NL4-3, TZM-bl
pEC50: −log10 of the molar value.
Quantity Kind: pEC50

Structure String	Observed
[N-]=[N+]=N[C@]1(CO)O[C@@H](n2ccc(N)nc2=O)[C@@H](F)[C@@H]1O	10.07
